Just for reference, a melting point compilation (Tetko et al.; mined from patent text by program, amines drawn as free bases though some values may be those of a salt) is where these values come from.

Can you tell me melting point for the items I'm about to list?

Completed entries (count: 10):
COc1cc(OC)c2c(=O)[nH]c(-c3cc(C)c(OCCN4CCOCC4)c(C)c3)cc2n1 | 212 to 213 °C
C=CC1CC2=CC(=O)CCC2C2CCC3(C)C(OC(C)=O)CCC3C12 (stereo not drawn) | 130 to 134 °C
Cn1c(=O)n(Cc2ccc(Cl)cc2Cl)c(=O)c2ccc(C(=O)O)cc21 | 308 to 310 °C
CC(C)(C)N(Cc1ccccc1)CC(O)c1cc(OCc2ccccc2)cc(OCc2ccccc2)c1 (stereo not drawn) | 78 to 79 °C
CC(C)c1nc(CN2C(=O)C3(COc4cc5c(cc43)OCO5)c3c(Cl)cccc32)cs1 (stereo not drawn) | 147 to 148 °C
O=C1OC2(CC(c3cccc(-c4ccccc4)c3)=NO2)c2ccccc21 (stereo not drawn) | 152 to 159 °C
NC(=O)c1cc(Cl)c(Cl)cc1C(=O)NCCN1CCC(c2noc3cc(F)ccc23)CC1 | 132 to 134 °C
O=C(NCCCCOc1ccc(-n2ccnc2)cc1)c1ccc(Br)cc1 | 140 to 141 °C
CCC(C)N(C)C(=O)c1cc2ccccc2c(-c2cccs2)n1 (stereo not drawn) | 146 °C
CCn1c(C(O)(Cc2ccccc2)Cc2ccccc2)nc(-c2ccncc2)c1-c1ccc(Cl)cc1 | 116 to 117 °C

Take each entry in turn and give its melting point.
1. CCC1=C(c2cccc(C(F)(F)F)c2)n2ncc(C#N)c2N(C(=O)CN2CCN(Cc3ccccc3)CC2)C1
2. CC(C)c1cn2ccccc2c1Sc1ccc(O)cc1
3. COc1cc(-n2cnnc2I)ccc1C

Out:
1. 97 to 99 °C
2. 100 °C
3. 123 °C

Take each entry in turn and give its melting point.
1. Cc1oc(-c2ccc3ccccc3c2)nc1COc1ccc(CCCC2OCCO2)cc1
2. CCN(CC)C(=O)COc1ccc(C(=O)CCl)cc1
3. COc1cc2c(cc1OC)N(C)C(=O)CN=C2c1cccc(C)c1
4. CC(C)OCCNS(=O)(=O)NC(=O)OCCCc1ccc(OCc2ccco2)cc1Oc1ncc(C(F)(F)F)cc1Cl
5. O=C(NS(=O)(=O)c1ccccc1-c1ccc(Cn2c(CCCC(F)(F)F)nn(-c3ccccc3C(F)(F)F)c2=O)cc1)c1ccccc1
6. C=CCN(C=O)c1ccc([N+](=O)[O-])cc1C
7. O=C1N(CO)c2cccc(Cl)c2C1(CO)c1cc2c(cc1O)OCO2 (stereo not drawn)

Out:
["141 to 142 °C", "89 to 91 °C", "119 to 121 °C", "118 to 120 °C", "197 to 199 °C", "56 °C", "> 210 °C"]

Take each entry in turn and give its melting point.
1. CCC(C#N)C(Br)c1ccc(Br)cc1 (stereo not drawn)
2. O=C(Nc1c(C(O)(C(F)(F)F)C(F)(F)F)ccc2ccccc12)c1cccc([N+](=O)[O-])c1
3. CCNC1=NN(c2ccc(Cl)cc2)C(C)C1 (stereo not drawn)
4. CCCn1c(=O)c2[nH]c(-c3ccc(OCC(=O)O)cc3)nc2n(CCC)c1=O
5. COc1ccc(CNC(=O)c2nc3scc(COCc4ccc(C(=O)O)cc4)c3c(=O)[nH]2)cc1
6. O=C(O)CCC(=O)N1CCc2cc(S(=O)(=O)N3CCN(c4ccc(C(=O)O)cc4)CC3)ccc21
7. CC1=C(C(=O)OCC2COc3ccccc3O2)C(c2c(F)c(F)c(F)c(F)c2F)C2=C(CNCC2=O)N1 (stereo not drawn)
8. CCCCCCCCCCCCCCCc1[nH]c2ccc(C(=S)OCC)cc2c1C

Out:
["87 °C", "211 to 212 °C", "57 to 58 °C", "214 to 216 °C", "271 to 273 °C", "255 to 257 °C", "167 to 170 °C", "55 to 60 °C"]

Take each entry in turn and give its melting point.
1. CC(N)c1ccc(NS(C)(=O)=O)c(Sc2ccc(F)cc2F)c1 (stereo not drawn)
2. Nc1nc2c(s1)CC(CCN1CC=C(c3ccccc3)CC1)CC2 (stereo not drawn)
3. CCOC(=O)C(C#N)(CCCN(C)CCc1cccc(C(=O)OC)c1)c1ccc(OC)c(OC)c1 (stereo not drawn)
4. Cc1nc2c(s1)-c1nc(N(C)c3cccc([N+](=O)[O-])c3)ncc1CC2
5. N#CSc1ccc(N)c(C(F)(F)F)c1
6. O=C(Nc1c(C(=O)c2ccccc2)[nH]c2cc(Cl)ccc12)c1ccccc1Cl
7. Cc1cc(C)nc(NC(=O)Cc2ccsc2Br)c1
8. CC(C)(C)OC(=O)CCCCCOc1ccc2sc(-c3ccccn3)nc(=O)c2c1

Out:
["165 to 166 °C", "177 to 182 °C", "89 to 91 °C", "203 to 204 °C", "52 to 55 °C", "229 to 234 °C", "72 °C", "101 to 102 °C"]

Take each entry in turn and give its melting point.
1. O=C1CCC(N2Cc3cc(CNC(=O)Nc4ccc(Br)cc4)ccc3C2=O)C(=O)N1 (stereo not drawn)
2. CC(=O)N1C(C(=O)NCCO[N+](=O)[O-])CSC1c1ccccc1C(=O)O (stereo not drawn)

Out:
1. 278 to 280 °C
2. 148 to 150 °C
